- TARGET OF ASSAY: human TLR8 (Homo sapiens (Human))
- Sequence (Q9NR97 27-1041): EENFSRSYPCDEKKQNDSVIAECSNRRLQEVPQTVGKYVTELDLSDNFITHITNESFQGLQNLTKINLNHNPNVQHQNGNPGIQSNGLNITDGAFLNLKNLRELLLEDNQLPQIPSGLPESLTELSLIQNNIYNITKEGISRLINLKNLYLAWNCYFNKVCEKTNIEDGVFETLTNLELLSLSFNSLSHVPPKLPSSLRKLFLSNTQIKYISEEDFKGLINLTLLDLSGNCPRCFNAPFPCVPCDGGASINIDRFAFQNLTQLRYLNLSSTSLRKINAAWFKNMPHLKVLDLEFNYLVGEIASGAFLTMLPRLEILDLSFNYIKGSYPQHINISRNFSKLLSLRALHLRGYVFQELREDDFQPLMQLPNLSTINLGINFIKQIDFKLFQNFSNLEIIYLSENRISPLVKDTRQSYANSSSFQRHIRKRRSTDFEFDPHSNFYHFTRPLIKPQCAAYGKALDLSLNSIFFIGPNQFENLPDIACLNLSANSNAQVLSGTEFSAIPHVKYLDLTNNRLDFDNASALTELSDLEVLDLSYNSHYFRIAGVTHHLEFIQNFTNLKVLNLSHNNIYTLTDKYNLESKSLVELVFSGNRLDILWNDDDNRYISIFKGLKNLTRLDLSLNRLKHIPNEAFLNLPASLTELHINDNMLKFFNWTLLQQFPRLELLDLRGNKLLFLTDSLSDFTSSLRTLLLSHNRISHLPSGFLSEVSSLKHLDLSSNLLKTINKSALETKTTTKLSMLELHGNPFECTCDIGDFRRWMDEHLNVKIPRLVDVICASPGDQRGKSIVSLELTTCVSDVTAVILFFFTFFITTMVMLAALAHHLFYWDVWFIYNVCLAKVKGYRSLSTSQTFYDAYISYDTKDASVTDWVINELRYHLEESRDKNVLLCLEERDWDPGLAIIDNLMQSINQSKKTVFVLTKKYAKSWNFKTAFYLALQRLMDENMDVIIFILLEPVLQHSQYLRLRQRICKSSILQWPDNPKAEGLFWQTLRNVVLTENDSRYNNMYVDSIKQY
- EXPERIMENTAL PROTOCOL: TLR8 inhibition reporter assay (HEK-Blue cells, SEAP reporter, R848 stimulation);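 also: compounds tested from 0.05 nM to 50 µM, 22 h at 37 °C, SEAP measured with HEK-Blue Detection, inhibition relative to agonist plus DMSO versus a known inhibitor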
- CONDITIONS USED: read-out: TLR8 IC50, HEK-Blue cells overexpressing human TLR8, R848 15.9 μM
So basically every entry gets a class from its IC50, ranges being low (below 40 nM), mid (40 nM to below 100 nM), high (100 nM or more)

Which class is correct for the following molecule? Cc1cc(-c2[nH]c3ccc(C4CCN(CC(=O)NC56CC7CC(CC(C7)C5)C6)CC4)cc3c2C(C)C)cc(C)n1 [Example 224]
high

Which class is correct for the following molecule? Cc1cc(-c2[nH]c3ccc(C4CCN(C(=O)CN5C[C@@H](C(F)(F)F)C[C@H]5CO)CC4)cc3c2C(C)C)cc(C)n1 [Example 394]
high
